Reference source for all entries: PubChem BioAssay AID1476

Biological target: Cruzipain (Trypanosoma cruzi) (UniProt P25779)
Sequence (P25779 123-467 limits assumed): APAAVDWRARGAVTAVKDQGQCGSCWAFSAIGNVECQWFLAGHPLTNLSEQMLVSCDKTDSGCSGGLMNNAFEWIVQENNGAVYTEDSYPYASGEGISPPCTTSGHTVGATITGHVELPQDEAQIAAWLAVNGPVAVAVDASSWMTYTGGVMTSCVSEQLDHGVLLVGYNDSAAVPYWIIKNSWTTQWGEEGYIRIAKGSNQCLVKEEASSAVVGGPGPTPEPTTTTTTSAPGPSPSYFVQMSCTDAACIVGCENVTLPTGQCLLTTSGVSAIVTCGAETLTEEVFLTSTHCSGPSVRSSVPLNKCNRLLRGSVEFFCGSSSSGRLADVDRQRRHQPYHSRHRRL
Assay: qHTS Assay for Promiscuous and Specific Inhibitors of Cruzain (without detergent); also: nearly all actives have a fitted effect of over 40% in size;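 as to max response, negative = inhibition: plate controls were enzyme without inhibitor for no effect and buffer without enzyme for full effect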
Conditions: purified cruzain, Z-FR-AMC fluorescence, no detergent
About 4,500 (2.2%) of roughly 200,000 compounds were called active. Another 12% or so got no clear call; they are omitted. The full list was thinned out, with actives kept by preference.
Parameter max response, negative = inhibition: see the listing below.
MEASURED PARAMETER: max response, negative = inhibition (%)

>>> test_value("Cc1cc2c(c(=O)n1Cc1ccco1)C(c1ccccc1)C(C#N)=C(N)O2 (centres undefined)")
-4.14
>>> test_value("Cc1cccc(C(=O)NCCc2nc3ccccc3n2Cc2ccccc2Cl)c1")
15.2
>>> test_value("O=c1cc2nc(-c3ccccc3)nc(SCCOc3ccc(Cl)cc3)n2[nH]1")
8.61
>>> test_value("COc1ccc(-n2ccnc(NCCc3ccc(Cl)cc3)c2=O)cc1OC")
16.8
>>> test_value("Cc1cccc(C(=O)NCCCN2CCCC2=O)c1")
-2.37
>>> test_value("CC(C)(C)OC(=O)N1CCC(c2c(C(=O)NCCc3ccsc3)cnn2-c2ccc(F)cc2F)CC1")
-13.2
>>> test_value("COc1ccc(CCNC(=O)CCc2c(C)nc3c(c(C)nn3-c3ccc(C)c(C)c3)c2C)c(OC)c1OC")
0.259
>>> test_value("Cc1ccc2c(c1)N(C(=O)CCC(=O)NCc1ccccc1F)CC(C)O2 (centres undefined)")
2.02
>>> test_value("Cc1ccc(NC2(C#N)C(=O)Nc3ccccc32)cc1 (centres undefined)")
-4.74
>>> test_value("O=C(Cn1cc(SCc2ccccc2)c2ccccc21)N1CCCCC1")
-0.659
>>> test_value("COc1ccccc1-c1nnc(C2CCN(C(=O)c3ccc(Cl)cc3)CC2)o1")
-7.8
>>> test_value("COc1ccc(CCNc2ncnc3onc(-c4ccc(Cl)cc4)c23)c(OC)c1")
-2.97
>>> test_value("O=C(Nc1ccc(F)cc1F)c1ccc2c(=O)n3c(nc2c1)CCCCC3")
-3.34
>>> test_value("Cc1nn2c(=O)cc(COC(=O)CNC(=O)c3ccc(F)cc3)nc2s1")
-12.1
>>> test_value("Cc1ccc(C)c(NC(=O)Cn2ccn(-c3ccc(F)cc3)c(=O)c2=O)c1")
-16.8
>>> test_value("COc1cc(NC(=O)Cn2c(=O)n(Cc3ccco3)c(=O)c3oc4ccccc4c32)cc(OC)c1")
-21.5
>>> test_value("O=C(CC1C(=O)N(c2ccccc2)C(=O)N1CCc1cccs1)Nc1ccc(F)cc1 (centres undefined)")
2.56
>>> test_value("Cc1cc(C)c2oc(-c3cccc(NC(=O)c4cccc(F)c4)c3C)nc2c1")
-10.4
>>> test_value("COc1ccc(S(=O)(=O)N(C)CC(=O)Nc2ccc3c(c2)OCCO3)cc1OC")
-3.41
>>> test_value("Cc1ccc(OCCSc2nc(-c3cccs3)nc3cc(=O)[nH]n23)cc1Cl")
3.5
>>> test_value("Cc1cc(C)cc(NC(=O)CSc2nc(=O)n(CCN3CCOCC3)c3c2CCC3)c1")
-7.74
>>> test_value("COc1ccc(C2CC(c3ccccc3)=NN2C(=O)CSc2nccc(=O)[nH]2)cc1 (centres undefined)")
-19
>>> test_value("CCOc1ccc(-n2c(SCC(=O)NCc3ccccc3)nc3n[nH]c(C)c3c2=N)cc1")
6.06
>>> test_value("Cc1nn(CC(=O)O)c(=O)c2cc3cc(F)ccc3n12")
-12.5
>>> test_value("Cc1ccc(NC(=O)Cn2c(=O)n(-c3ccccc3)c(=O)c3c4c(sc32)CCCC4)cc1")
-7.31
>>> test_value("N#Cc1ccc(-c2cccs2)nc1SCc1ccc(Br)cc1")
-6.69
>>> test_value("Cc1cccc(-c2nc(SCc3ccc(Br)cc3)n3[nH]c(=O)cc3n2)c1")
-2.63
>>> test_value("CCOc1ccc(CNC(=O)c2cc(-c3ccc(Cl)s3)nc3ccccc23)cc1")
-5.14
>>> test_value("CCC(=O)N1CCc2cc(Br)cc(S(=O)(=O)NCc3ccc(Cl)cc3)c21")
5.32
>>> test_value("COc1ccc(-n2nc(C(=O)NCCc3ccc(Cl)cc3)c3c4ccccc4n(C)c3c2=O)cc1Cl")
-5.4
>>> test_value("COc1cccc(-c2cc(C(=O)N/N=C/c3ccc(OC)c(COC(C)=O)c3)c3ccccc3n2)c1")
-16
>>> test_value("CCCc1cc(=O)[nH]c(SCC(=O)OCc2ccccc2)n1")
-0.512
>>> test_value("CCOc1ccc(NC(=O)CSc2c3c(nc4ccccc24)CCCC3)cc1")
1.83
>>> test_value("CCOc1ccccc1NC(=O)Cn1c(=O)n(Cc2ccco2)c(=O)c2sc3ccccc3c21")
-0.26

###

Biological target: Cruzipain (Trypanosoma cruzi) (UniProt P25779)
Test: qHTS Assay for Promiscuous and Specific Inhibitors of Cruzain (without detergent); also: nearly all actives have a fitted effect of over 40% in size; also: potency is read from the fitted curve at half-maximal effect
Settings: purified cruzain, Z-FR-AMC fluorescence, no detergent
Among all 200,000 compounds or so, about 4,500 (2.2%) were called active. Inconclusive results (about 12%) are left out. The sample holds actives, similar compounds and a random draw of the others, so the mix is not that of the screen.
MEASURED PARAMETER: Potency

>>> test_value("Cc1ccc(-c2cc(C(=O)N/N=C/C=C/c3ccco3)c3ccccc3n2)cc1C")
"25.1 µM (active)"
>>> test_value("Clc1ccccc1CSc1nnc(-c2ccco2)c(-c2ccco2)n1")
"15.8 µM (active)"
>>> test_value("N#CCSc1nc2c(c(=O)n1Cc1ccccc1)C1(CCCC1)Cc1ccccc1-2")
"12.6 µM (active)"
>>> test_value("O=S(=O)(O)c1ccc(O)c2ncccc12.O=S(=O)(O)c1ccc(O)c2ncccc12.[Zn]")
"3.16 µM (active)"
>>> test_value("Cc1sc(NC(=S)NC(=O)c2cccs2)nc1-c1ccc(CC(C)C)cc1")
"10 µM (active)"
>>> test_value("C=CCN(CC=C)S(=O)(=O)c1ccc(C(=O)Nc2nc3c(s2)CCc2ccccc2-3)cc1")
"10 µM (active)"
>>> test_value("COc1cc(NC(=S)NCCSc2ccc(C)cc2)cc(OC)c1")
"0.251 µM (active)"
>>> test_value("COc1ccc(C)cc1Nc1nc(-c2c(C)[nH]c3ccccc23)cs1")
"25.1 µM (active)"
>>> test_value("O=C(Cc1ccc(-c2ccccc2)cc1)NC(c1ccccc1)c1ccccc1")
"25.1 µM (active)"
>>> test_value("COc1ccc(-c2csc(NC(=O)CCCc3cccs3)n2)cc1")
"10 µM (active)"
>>> test_value("CC(C)c1ccc(NC(=O)Cn2nnc(C(=O)NCCc3ccccc3)c2N)cc1")
"3.16 µM (active)"
>>> test_value("O=C(Nn1c(SCc2ccc([N+](=O)[O-])cc2)nc2ccccc2c1=O)c1ccc(F)cc1")
"10 µM (active)"
>>> test_value("Cc1cccc(N=C2NN=C(c3c[nH]c4ccccc34)CS2)c1")
"7.94 µM (active)"
>>> test_value("N#CC1=C(SCc2ccc(C#N)cc2)N=C(N)C(c2nc(-c3ccccc3)cs2)C12CCCCC2 (stereo not given)")
"10 µM (active)"
>>> test_value("Cc1ccc(OCc2nnc(NC(=O)OCC(C)C)s2)cc1")
"20 µM (active)"

###

Parameter Potency: see the listing below.
Target: Cruzipain (Trypanosoma cruzi) (UniProt P25779)
Assay: qHTS Assay for Promiscuous and Specific Inhibitors of Cruzain (without detergent); also: nearly all actives have a fitted effect of over 40% in size; also: potency is read from the fitted curve at half-maximal effect
Conditions: purified cruzain, Z-FR-AMC fluorescence, no detergent
Protocol: Cruzain is a cysteine protease from the tropical parasite Trypanosoma cruzi. […] Cruzain was assayed by the use of fluorogenic coumarin-based substrate Z-FR-AMC: proteolytic cleavage releases AMC, whose fluorescence is measured at 360 nm excitation and 450 nm emission. […]
Out of some 200,000 compounds screened, about 4,500 (2.2%) were called active. Another 12% or so got no clear call; they are omitted. Many of the other results were omitted from the sample, so actives are more common in it than they were.
MEASURED PARAMETER: Potency

>>> test_value("O=C(CSc1nc2ccccc2o1)N1CCN(c2ccc(Cl)cc2)CC1")
"10 µM (active)"
>>> test_value("O=C(CN1CCc2ccccc21)NC(c1ccccc1)c1ccccc1")
"25.1 µM (active)"
>>> test_value("COC(=O)c1c(-c2cccs2)csc1NC(=O)CSc1ncnc2sc(C)c(C)c12")
"6.31 µM (active)"
>>> test_value("COc1cc(C2CC(=O)N3CN(Cc4ccccc4)CSC3=C2C#N)ccc1OCc1ccccc1 (centres undefined)")
"15.8 µM (active)"

###

Molecular target: Cruzipain (Trypanosoma cruzi) (UniProt P25779)
Assay: qHTS Assay for Promiscuous and Specific Inhibitors of Cruzain (without detergent); also: nearly all actives have a fitted effect of over 40% in size;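 as to max response, negative = inhibition: plate controls were enzyme without inhibitor for no effect and buffer without enzyme for full effect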
Settings: purified cruzain, Z-FR-AMC fluorescence, no detergent
About 4,500 (2.2%) of roughly 200,000 compounds were called active. Another 12% or so got no clear call; they are omitted. Shown is part of a subset that was picked to be rich in actives.
MEASURED PARAMETER: max response, negative = inhibition (%)

>>> test_value("COC(=O)CN(C(=S)Nc1ccc(Cl)cc1)C1CC(=O)N(c2ccc(OC)cc2)C1=O (centres undefined)")
-5.17
>>> test_value("COc1ccc(OC)c2sc(N3CCN(C(=O)C4COc5ccccc5O4)CC3)nc12 (centres undefined)")
-0.959
>>> test_value("COc1c(Cl)cc(Cl)cc1C(=O)Nc1cccc2cccnc12")
-4.23
>>> test_value("O=C(CCS(=O)(=O)c1ccccc1)N(Cc1cccnc1)c1nc2c(F)cccc2s1")
15.4
>>> test_value("Cc1ccc(Cc2nc3ccccc3nc2SCC(=O)Nc2cccc(C(F)(F)F)c2)cc1")
-25
>>> test_value("COc1ccc(F)cc1S(=O)(=O)Nc1ccc2c(c1)OCO2")
9.18
>>> test_value("CN1C(=O)c2ccccc2Sc2ccc(NC(=O)Cc3ccc(Cl)cc3)cc21")
14.1
>>> test_value("CCN(CC)S(=O)(=O)c1ccc2c(c1)N(CC(=O)NCC(C)c1ccccc1)C(=O)CO2 (centres undefined)")
13.8
>>> test_value("CCCCN(C)CCCNC(=O)CN1N=C(c2ccc(OC)cc2)CCC1=O")
2.7
>>> test_value("Cc1ccc(NC(=O)CSc2nc3c([nH]c4ccccc43)c(=O)n2-c2ccccc2)c(C)c1")
12.6
>>> test_value("CN(C)CCNC(=O)/C(=C/c1cccc([N+](=O)[O-])c1)NC(=O)c1ccccc1")
-6.18
>>> test_value("Fc1ccc(-c2nn(-c3ccccc3Cl)c3c2cnc2ccccc23)cc1")
4.61
>>> test_value("CN(C(=O)c1ccc2c(c1)N(Cc1cccc(Cl)c1)C(=O)c1ccccc1S2=O)C1CCCCC1 (centres undefined)")
-3.62
>>> test_value("O=c1c(O)c(Br)ccc2c(Br)c(O)c(O)c(O)c12")
-27.1
